Cited source: patent US20030100567A1

assay: Pharmacokinetics in rhesus monkey; details: in vivo
MEASUREMENT TYPE: bioavailability (%)

[1] CS(=O)(=O)C1CCN(Cc2ccnc(Nc3ncc(C#N)s3)c2)CC1
[2] CNC(=O)N1CCN(Cc2ccnc(Nc3ncc(C#N)s3)c2)CC1
[ask] API: POST /compare with 1 and 2 ; response names the item with higher bioavailability. Identify your pick by its label.
[reply] 1

---

test: Pharmacokinetics in rhesus monkey; conditions: in vivo
MEASUREMENT TYPE: half-life (h)

[A] CS(=O)(=O)C1CCN(Cc2ccnc(Nc3ncc(C#N)s3)c2)CC1
[B] CNC(=O)N1CCN(Cc2ccnc(Nc3ncc(C#N)s3)c2)CC1
[ask] Of the pair A and B , name the member with the lesser recorded half-life. Identify your pick by its label.
[reply] B

---

test: Pharmacokinetics in rat; details: in vivo
MEASUREMENT TYPE: bioavailability (%)

[1] CNC(=O)N1CCN(Cc2ccnc(Nc3ncc(C#N)s3)c2)CC1
[2] CS(=O)(=O)C1CCN(Cc2ccnc(Nc3ncc(C#N)s3)c2)CC1
[ask] API: POST /compare with 1 and 2 ; response names the item with higher bioavailability. Identify your pick by its label.
[reply] 2

---

assay: Pharmacokinetics in dog; conditions: in vivo
MEASUREMENT TYPE: clearance (mL/min/kg)

- N#Cc1cnc(Nc2cc(CN3CCN(C(N)=O)CC3)ccn2)s1: 2.6

[a] CN(C)C(=O)N1CCN(Cc2ccnc(Nc3ncc(C#N)s3)c2)CC1
[b] CS(=O)(=O)C1CCN(Cc2ccnc(Nc3ncc(C#N)s3)c2)CC1
[ask] API: POST /compare with a and b ; response names the item with higher clearance. Identify your pick by its label.
[reply] a
(a: 3.6 mL/min/kg, b: 1.8 mL/min/kg)
